Source listed as ChEMBL document CHEMBL1201862.

Please respond with reported GI50 for every item in the list.
# System: K562
# assay_overview: NCI tumour cell line growth inhibition, 48 h
Activity calls are given as the source filed them. Cut-off read from the data, not from the text of the source: active = GI50 up to about 1.1 µM and inactive = higher.

Worked cases, GI50 given:
{"compound_structure": "C[C@]12CC[C@H](OC(=O)Cc3ccc(N(CCCl)CCCl)cc3)CC1=CC[C@@H]1[C@@H]2CC[C@]2(C)C(=O)CC[C@@H]12", "target_system": "K562", "result": "> 100 µM (inactive)"}
{"compound_structure": "CC1=C(C(=O)NC2CCCCC2)CC(C(=O)NC2CCCCC2)=C(C)N1", "target_system": "K562", "result": "57.4 µM (inactive)"}
{"compound_structure": "COc1ccc(CCn2ccc(C)n2)c(OC)c1", "target_system": "K562", "result": "> 100 µM (inactive)"}

API: the following record is the query input.
Sure, the documented GI50 for `O=C1[C@@H]2[C@@H](CN3CN(c4ccccc4)N=C(c4ccccc4)[C@@]23c2ccccc2)C(=O)N1c1ccccc1` is 2.69 µM (inactive)
